Test system: CEM cells HIV-1 protection, formazan growth assay
assay.notes: NCI AIDS Antiviral Assay;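 active = compounds giving half or more protection of infected cells from virus-caused growth loss, again on retest; inactive = the rest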
The reply should be one of these categories: 1 = active, -1 = inactive

Examples from the recorded data:
[in] Hey, what did the test say about O=C1CC2(CCN(Cc3ccccc3)CC2)C(=O)N1N1CCCCC1 ?
[out] -1

[in] Hey, what did the test say about C=CCCCN(C(=O)c1ccccc1)c1ccc(C(=O)OC)o1 ?
[out] -1

[in] Hey, what did the test say about C=C(CN(C)C)C(=O)c1ccc(Oc2ccccc2)cc1 ?
[out] -1

[in] Hey, what did the test say about CN1c2ccccc2N=Cc2c1oc1ccc3ccccc3c1c2=O ?
[out] 1

[in] Hey, what did the test say about O=C(NC(=Nc1ccccc1)SCSC(=Nc1ccccc1)NC(=O)c1ccccc1Cl)c1ccccc1Cl ?
[out] -1

---
[in] Hey, what did the test say about Cc1ccc(-c2cc(-c3ccccc3)c(C#N)c(=O)n2C2OC(CO)C(O)C(O)C2O)cc1 (centres undefined) ?
[out] 1

[in] Hey, what did the test say about CC(=O)C1C(=O)C(C(C)=O)C2C3C=CC(C3)C12 (centres undefined) ?
[out] -1

[in] Hey, what did the test say about CC(=O)OCC1=C(CCC#N)N2C(=O)C(NC(=O)Cc3cccs3)C2S(=O)C1 (centres undefined) ?
[out] -1

----------
Entries annotated with measured pIC50
System: CEM cells HIV-1 protection, formazan growth assay
assay.notes: NCI AIDS Antiviral Assay
setup.conditions: measured here: growth of uninfected CEM cells
Method: The ability of compounds to protect human CEM cells from HIV-1 infection is measured as a screen for new compounds capable of inhibiting the HIV virus. Five concentrations of drug were tested on uninfected and infected cells and cell growth was measured using a soluble formazan assay. […] Compounds that provided at least 50% protection were retested. Compounds that provided at least 50% protection on retest were listed as moderately active. […]
// pIC50 here means minus log10 of the molar concentration (mol/L)

[in] Could you share which pIC50 value was measured for CCCNC1=C(Cl)C(=O)c2ccccc2C1=O ?
[out] 4.58

[in] Could you share which pIC50 value was measured for CCOC(=O)CN(c1sc(C)c(C)c1C(=O)OCC)S(=O)(=O)c1ccc(C)cc1 ?
[out] 4.93

[in] Could you share which pIC50 value was measured for O=Nc1c2cc3ccccc3[nH]c-2c2ccccc12 ?
[out] 4.69

[in] Could you share which pIC50 value was measured for COc1ccc2c(c1)OCCN(C)OC2c1cccc(Cl)c1 (configuration not stated) ?
[out] 4.06

[in] Could you share which pIC50 value was measured for COc1cccc(C2c3cc4c(cc3OC(N3CCCC3)C2C)OCO4)c1 (configuration not stated) ?
[out] 5.42

[in] Could you share which pIC50 value was measured for COc1cc(C(C[N+](=O)[O-])SC(C)=O)ccc1OCc1ccccc1 (configuration not stated) ?
[out] 5.71

[in] Could you share which pIC50 value was measured for Cc1cc(N(CCC#N)CCC#N)ccc1/C(N=Nc1ccc([N+](=O)[O-])cc1)=N\NC(=O)c1cc(Cl)ccc1O ?
[out] 4.64

[in] Could you share which pIC50 value was measured for CNc1ccccc1S(=O)(=O)c1ccccc1Cl ?
[out] 4.39

[in] Could you share which pIC50 value was measured for Nc1nc(=S)c2[nH]cnc2[nH]1 ?
[out] 6.02

[in] Could you share which pIC50 value was measured for N#C/C(=C\c1ccc(Cl)cc1)c1ccccc1 ?
[out] 4.49

---
[in] Could you share which pIC50 value was measured for COc1ccc2ccccc2c1C1OC(=O)c2ccccc21 (configuration not stated) ?
[out] 4.54

[in] Could you share which pIC50 value was measured for COc1ccc(-c2cnoc2-c2ccc(OC)c(OC)c2)cc1OC ?
[out] 6.45

[in] Could you share which pIC50 value was measured for CN(C)CCNC(=O)c1cccc(C(C)(C)C)c1[N+](=O)[O-] ?
[out] 3.87

[in] Could you share which pIC50 value was measured for CCOC(=O)c1cc(-c2ccccc2)c(=O)c(OC)nc1-c1ccccc1 ?
[out] 4.13

[in] Could you share which pIC50 value was measured for CC1C(c2ccccc2)SC(=N)N1C (configuration not stated) ?
[out] 3.59

[in] Could you share which pIC50 value was measured for COc1cc(C2c3cccc4cccc(c34)C3CCC(=O)N32)cc(OC)c1O (configuration not stated) ?
[out] 5.88

[in] Could you share which pIC50 value was measured for COc1ccc2[nH]c3c(c2c1)CC(=S)N1CCCC(CC3=O)C1 (configuration not stated) ?
[out] 4.21
